These data points were gathered from patent US20150239980A1.

Target: T1, human MCAM domain 2 (amino acids 139-242), Fc-tagged (human, UniProt P43121 139-242)
T1 sequence: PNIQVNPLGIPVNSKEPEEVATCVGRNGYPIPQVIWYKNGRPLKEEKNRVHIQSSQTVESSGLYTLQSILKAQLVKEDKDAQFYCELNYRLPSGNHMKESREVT
Assay: ForteBio domain mapping as in Example 8
Value Type: binding result

>>> reported_value("mouse anti-human MCAM monoclonal antibody clone 1174.1.3 (antibody, V domains shown, mouse hybridoma antibody) VH: QIQLVQSGPELKKPGETVKISCKASGYTFTNYGMNWVKQAPGKGLKWMGWINTYTGEPTYADDFKGRFALSLETSASTAYLQINNLKNEDMATYFCARYRYNKYERAMDYWGQGTSVTVSS VL: DIVLTQSPASLAVSLGQRATISCRASKSVSTSGYSYMYWYQQKPGQPPKLLIYLASNLESGVPARFSGSGSGTDFTLNIHPVEEEDAATYYCQHSRELPFTFGSGTKLEIK")
"no binding"
>>> reported_value("mouse anti-human MCAM monoclonal antibody clone 1749.1.3 (antibody, V domains shown, mouse hybridoma antibody; also called rodent 1749; murine 1749.1.3 anti-MCAM antibody) VH: DVKLVESGGDLVKPGGSLKLSCAASGFTFSSYIMSWVRQTPEKRLEWVATISSGGSSTYYPDSVKGRFTISRDNAKNTLYLQMSSLKSEDTAMYYCTRDDDYDVKVFAYWGQGTLVTVSA VL: DIVMSQSPSSLAVSAGEKVTMNCKSSRSLLNSRIRKNYLAWYQQKPGQSPKLLIYWASTRESGVPDRFTGSGSGTDFTLTISSVQAEDLAVYYCKQSYNLLTFGAGTKLELK")
"no binding"
>>> reported_value("mouse anti-human MCAM monoclonal antibody clone 1415.1.1 (antibody, V domains shown, mouse hybridoma antibody) VH: QVQLQQPGAELVQPGAPVKLSCKASGYIFTSYWMNWVKQRPGRGLEWIGRIDPSDSKIHYNQKFKDKATLTVDRSSSTAYIQLGSLTSEDSAVYYCAKEGGLRRGDYAMDYWGQGTSVTVSS VL: DIVMTQSPATLSVTPGDRVSLSCRASQSISDYLHWYQQKSHESPRLLIKYASQSISGIPSRFSGSGSGSDFTLSINSVEPEDVGVYYCQNGHNFPRTFGGGTKLEIK")
"no binding"
